- ASSAY_DETAILS: qHTS of pediatric cancer cell lines to identify multiple opportunities for drug repurposing: Primary screen for Rh41 cells (AID 1347108); also: nearly all actives have a fitted effect of over 70% in size
- REPORTED_CONDITIONS: Rh41 rhabdomyosarcoma viability, CellTiter-Glo luminescence, 48 h; series mostly up to 46 µM
Records with an inconclusive call do not appear. Calls of active or inactive are those of the source. Calls follow the shape of the dose curve; as a rule, active = well fitted cell-killing curve with a large enough effect; inconclusive = small, poorly fitted or top-dose-only effect; inactive = no such curve, though single readings can be large or run the other way. Residues, ends and D or L forms follow the SMILES beside them. *: point of attachment. Cbz = O=C(OCc1ccccc1)*
Outcome codes: active, inactive

[
  {
    "MOLECULE": "c1cncc(CN2CCC(n3ncc4c(N5CCOCC5)nc(-c5ccc6[nH]ccc6c5)nc43)CC2)c1",
    "LABEL": "active"
  },
  {
    "MOLECULE": "N#CNC(=NCCCCCCOc1ccc(Cl)cc1)Nc1ccncc1",
    "LABEL": "active"
  },
  {
    "MOLECULE": "CC(C(C)N1CC(=O)NC(=O)C1)N1CC(=O)NC(=O)C1 (configuration not stated)",
    "LABEL": "inactive"
  },
  {
    "MOLECULE": "CC(=O)N[C@H]1[C@@H]([C@H](O)[C@H](O)CO)OC(C(=O)O)=C[C@@H]1N=C(N)N",
    "LABEL": "inactive"
  },
  {
    "MOLECULE": "O=C(Nc1cc2cc[nH]c2cn1)c1ccccc1",
    "LABEL": "active"
  },
  {
    "MOLECULE": "CC(C)N1[N]C(=C2C=c3cc(O)ccc3=N2)c2c(N)ncnc21",
    "LABEL": "active"
  },
  {
    "MOLECULE": "O=C(NNC(=O)c1ccc(CNS(=O)(=O)c2ccc(F)c(Cl)c2)cc1)c1ccccc1",
    "LABEL": "inactive"
  },
  {
    "MOLECULE": "Cc1ccc2nc(NCCN)c3ncc(C)n3c2c1",
    "LABEL": "active"
  },
  {
    "MOLECULE": "CON=C(C(=O)N[C@@H]1C(=O)N2C(C(=O)O)=C(CSC(=O)c3ccco3)CS[C@H]12)c1csc(N)n1",
    "LABEL": "inactive"
  },
  {
    "MOLECULE": "CC(C)C[C@H](NC(=O)CNC(=O)c1cc(Cl)ccc1Cl)B1OC(=O)CC(CC(=O)O)(C(=O)O)O1 (some centres not stated)",
    "LABEL": "active"
  },
  {
    "MOLECULE": "CC(C)C[C@@H](C=O)NC(=O)[C@H](CC(C)C)NC(=O)[C@H](CC(C)C)NC(=O)OCc1ccccc1 (Cbz-Leu-Leu-Leu-aldehyde)",
    "LABEL": "active"
  },
  {
    "MOLECULE": "C=C1C(=O)O[C@H]2[C@@H]1CCC(C)=CCC[C@@]1(C)O[C@@H]21",
    "LABEL": "active"
  },
  {
    "MOLECULE": "C[C@H](CCC(=O)O)[C@H]1CC[C@H]2[C@@H]3[C@H](O)C[C@@H]4C[C@H](O)CC[C@]4(C)[C@@H]3CC[C@]12C",
    "LABEL": "inactive"
  },
  {
    "MOLECULE": "Cn1cnc(=N)c2[nH]cnc21",
    "LABEL": "active"
  },
  {
    "MOLECULE": "COc1cc(C=CC(=O)CC(=O)C=Cc2ccc(O)c(OC)c2)ccc1O",
    "LABEL": "active"
  },
  {
    "MOLECULE": "O=C(CCCCCCC(=O)Nc1cccnc1)NO",
    "LABEL": "active"
  },
  {
    "MOLECULE": "CCOC(=O)[C@H](CCc1ccccc1)N[C@@H](C)C(=O)N1[C@@H](C(=O)O)C[C@H]2CCC[C@@H]21",
    "LABEL": "active"
  }
]
